target_or_test_system: FPR1 (Homo sapiens)
Construct: endogenous in cells
Sequence (P21462 1-350): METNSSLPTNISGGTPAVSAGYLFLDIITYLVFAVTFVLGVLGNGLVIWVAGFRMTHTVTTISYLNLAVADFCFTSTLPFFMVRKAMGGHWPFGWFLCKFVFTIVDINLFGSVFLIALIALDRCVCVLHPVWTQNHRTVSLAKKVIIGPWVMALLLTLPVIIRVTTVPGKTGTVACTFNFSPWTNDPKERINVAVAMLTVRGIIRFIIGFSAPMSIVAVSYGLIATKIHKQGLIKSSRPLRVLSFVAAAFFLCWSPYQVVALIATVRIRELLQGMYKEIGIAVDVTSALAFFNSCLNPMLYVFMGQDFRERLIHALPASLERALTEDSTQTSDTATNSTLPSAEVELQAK
test_summary: FPR1 binding assay (FNLFNYK, flow cytometry)
assay_setup: neutrophils, FNLFNYK 4 nM, 4° C.; read-out: IC50, suppression of binding of FPR1-specific ligand FNLFNYK
pIC50: −log10 of the molar value.
quantity_name: pIC50

Incoming: Output pIC50 of C=C(C)C1CCC2(C(=O)O)CC[C@]3(C)[C@H](CC[C@@H]4[C@@](C)(CCC(=O)O)[C@H](C(=C)C)CC[C@]43C)C12 (stereo partly shown) [LS-PH]
Outgoing: ~5.76
